molecular target: intracellular domain of human Tie2 (GST fusion protein) (Homo sapiens, UniProt Q02763); construct: intracellular domain of human Tie2 (amino acids 776-1124); assay: Tie2 kinase assay (Tie2-TR-FRET); details: ATP concentration 1 mM, in some cases means of several independent determinations
pIC50: −log10 of the molar value.
Use Condition met when the recorded pIC50 is no lower than 8; use Condition not met when it is lower.

Worked set:
{"Smiles Entry": "Cc1ccc(NC(=O)c2cc(-n3ccnc3C)cc(C(F)(F)F)c2)cc1-n1ccn2nc(-c3cccnc3)cc12", "Tested System": "intracellular domain of human Tie2 (GST fusion protein) (Homo sapiens, UniProt Q02763)", "Group": "Condition met"}
{"Smiles Entry": "Cc1ccc(NC(=O)c2cc(C(C)(C)O)cc(S(F)(F)(F)(F)F)c2)cc1-n1ccn2nc(-c3cccnc3)cc12", "Tested System": "intracellular domain of human Tie2 (GST fusion protein) (Homo sapiens, UniProt Q02763)", "Group": "Condition met"}
{"Smiles Entry": "Cc1c(NC(=O)c2cc(C#N)cc(S(F)(F)(F)(F)F)c2)cccc1-n1ccn2nc(-c3cccnc3)cc12", "Tested System": "intracellular domain of human Tie2 (GST fusion protein) (Homo sapiens, UniProt Q02763)", "Group": "Condition not met"}

Qu. pIC50 >= 8 for Cc1ccc(NC(=O)c2cc(S(C)(=O)=O)cc(S(F)(F)(F)(F)F)c2)cc1-n1ccn2nc(-c3cncs3)cc12 ?
Ans. Condition met

Qu. Param item: Cc1ccc(NC(=O)c2cccc(C(C)(C)C)c2)cc1-n1ccn2nc(-c3cn[nH]c3)cc12
Ans. Condition not met

Qu. Also check Cc1cc(C)c(-n2ccn3nc(-c4cccnc4)cc23)cc1NC(=O)c1cccc(OCC(C)C)c1
Ans. Condition not met

====

Each entry below lists one item and its recorded IC50 value.
target: intracellular domain of human Tie2 (GST fusion protein) (Homo sapiens); construct: intracellular domain of human Tie2 (amino acids 776-1124); test: Tie2 kinase assay (Tie2-TR-FRET); conditions: ATP concentration 1 mM, in some cases means of several independent determinations
Field format: number, assumed nM, no unit text.

{"Smiles Entry": "Cc1cc(C)c(-n2ccn3nc(-c4cccnc4)cc23)cc1NC(=O)c1cc(Br)cc(S(F)(F)(F)(F)F)c1", "Units Symbol": "nM", "Endpoint Value": 0.5}

Qu. Data request, read-out IC50, for COC1CCN(c2cc(C(=O)Nc3cc(-n4ccn5nc(-c6cccnc6)cc45)c(C)cc3C)cc(S(F)(F)(F)(F)F)c2)CC1
Ans. 0.9

Qu. Now this one: Cc1ccc(NC(=O)c2cccc(C(C)(C)C)c2)cc1-n1ccn2nc(-c3cccnc3)cc12
Ans. 56

Qu. Can you handle CNc1cc(C(=O)Nc2ccc(C)c(-n3ccn4nc(-c5cccnc5)cc34)c2)cc(C(C)(C)C)n1 next?
Ans. 7.9

====

Property: IC50; scope: individual compounds
Molecular target: intracellular domain of human Tie2 (GST fusion protein) (Homo sapiens, UniProt Q02763)
Construct: intracellular domain of human Tie2 (amino acids 776-1124)
Assay: Tie2 kinase assay (Tie2-TR-FRET)
Conditions: ATP concentration 1 mM, in some cases means of several independent determinations
Procedure: The Tie2-inhibitory activity of the substances according to the invention was determined with the aid of one of the Tie2-TR-FRET assays described in the sections below at an ATP concentration of 1 mM (TR-FRET=Time-Resolved Fluorescence Resonance Energy Transfer): […]
Please reply with the bare figure in nM and do not write the unit itself.

{"Smiles Entry": "Cc1ccc(NC(=O)c2cccc(S(F)(F)(F)(F)F)c2)cc1-n1ccn2nc(-c3cncs3)cc12", "IC50 / nM": 7.8}
{"Smiles Entry": "Cc1ccc(NC(=O)c2cccc(-n3cccn3)c2)cc1-n1ccn2nc(-c3cccnc3)cc12", "IC50 / nM": 275}
{"Smiles Entry": "Cc1cc(C)c(-n2ccn3nc(-c4cccnc4)cc23)cc1NC(=O)c1cc(C(C)(C)F)cc(S(F)(F)(F)(F)F)c1", "IC50 / nM": 2.3}

Moving on to the next compound.
Qu. // query IC50 value for entry Cc1cc(C)c(-n2ccn3nc(-c4cccnc4)cc23)cc1NC(=O)c1cc(N2CCCCC2)cc(S(F)(F)(F)(F)F)c1
Ans. 1.3

====

target: intracellular domain of human Tie2 (GST fusion protein) (Homo sapiens); construct: intracellular domain of human Tie2 (amino acids 776-1124); made in house; host or cells: Baculovirus-infected insect cells (Hi5); assay: Tie2 kinase assay (Tie2-TR-FRET); assay type: biochemical; conditions: ATP concentration 1 mM, in some cases means of several independent determinations
// reported IC50 per item
Report only the number, with the unit nM understood.

Check out these entries, answers already filled in.
{"Smiles Entry": "Cc1ccc(NC(=O)c2cc(C#N)cc(S(F)(F)(F)(F)F)c2)c(O)c1-n1ccn2nc(-c3cccnc3)cc12", "Tested System": "intracellular domain of human Tie2 (GST fusion protein) (Homo sapiens)", "Endpoint Value": 5.9}
{"Smiles Entry": "Cc1ccc(NC(=O)c2cccc(S(F)(F)(F)(F)F)c2)cc1-n1ccn2nc(-c3cccnc3)cc12", "Tested System": "intracellular domain of human Tie2 (GST fusion protein) (Homo sapiens)", "Endpoint Value": 24}

Qu. Request - read-out IC50 | tested on intracellular domain of human Tie2 (GST fusion protein) (Homo sapiens) | compound Cc1ccc(NC(=O)c2cc(C(F)(F)F)cc(S(N)(=O)=O)c2)cc1-n1ccn2nc(-c3cccnc3)cc12
Ans. 3.9

Qu. What about this compound? Cc1cc(C)c(-n2ccn3nc(-c4cccnc4)cc23)cc1NC(=O)c1cc(C(C)(C)O)cc(S(F)(F)(F)(F)F)c1
Ans. 0.4

====

molecular target: endogenous Tie2 receptor (Homo sapiens, UniProt Q02763); construct: the endogenous Tie2 receptor; assay: Tie2-pTyr-ELISA: autophosphorylation of endogenous Tie2 receptor in HUVEC; conditions: autophosphorylation elevated by sodium orthovanadate (4 mM), Tie2/phosphotyrosine sandwich ELISA, from 2-7 independent measurements
Sequence (Q02763 23-1124): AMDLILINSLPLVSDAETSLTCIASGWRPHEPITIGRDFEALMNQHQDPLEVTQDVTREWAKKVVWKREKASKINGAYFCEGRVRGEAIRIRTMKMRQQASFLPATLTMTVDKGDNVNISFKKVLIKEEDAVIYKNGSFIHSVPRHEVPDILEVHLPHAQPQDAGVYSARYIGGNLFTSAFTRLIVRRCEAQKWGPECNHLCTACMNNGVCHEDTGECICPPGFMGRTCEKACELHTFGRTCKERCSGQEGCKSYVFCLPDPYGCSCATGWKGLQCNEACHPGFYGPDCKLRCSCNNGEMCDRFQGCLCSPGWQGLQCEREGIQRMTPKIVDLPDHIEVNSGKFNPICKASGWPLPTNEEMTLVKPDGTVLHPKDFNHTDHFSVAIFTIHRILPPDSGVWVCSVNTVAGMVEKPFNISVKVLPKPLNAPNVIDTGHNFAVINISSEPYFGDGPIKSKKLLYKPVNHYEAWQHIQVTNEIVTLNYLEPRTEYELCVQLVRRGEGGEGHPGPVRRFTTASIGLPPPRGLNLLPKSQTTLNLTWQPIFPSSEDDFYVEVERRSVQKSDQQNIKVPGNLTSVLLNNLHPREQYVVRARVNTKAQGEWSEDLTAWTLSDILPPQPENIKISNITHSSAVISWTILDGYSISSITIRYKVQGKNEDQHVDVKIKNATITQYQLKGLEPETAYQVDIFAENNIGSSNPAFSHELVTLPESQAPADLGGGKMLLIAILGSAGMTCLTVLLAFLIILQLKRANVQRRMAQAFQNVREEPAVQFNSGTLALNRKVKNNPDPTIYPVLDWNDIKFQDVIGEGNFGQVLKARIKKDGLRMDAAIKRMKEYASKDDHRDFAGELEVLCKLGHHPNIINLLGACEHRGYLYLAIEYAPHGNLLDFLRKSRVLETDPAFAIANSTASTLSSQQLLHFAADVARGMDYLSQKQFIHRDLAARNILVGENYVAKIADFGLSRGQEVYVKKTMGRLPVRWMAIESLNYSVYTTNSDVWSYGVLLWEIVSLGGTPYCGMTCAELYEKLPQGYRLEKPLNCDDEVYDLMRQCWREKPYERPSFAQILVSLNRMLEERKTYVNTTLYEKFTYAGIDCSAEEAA
Quantity Measured: pIC50
Field pIC50 (float): negative decimal logarithm of the concentration in molar.

Record excerpt, results attached:
{"Smiles Entry": "Cc1ccc(NC(=O)c2cc(CN3CCCC3)cc(C(C)(C)C)c2)cc1-n1ccn2nc(-c3cccnc3)cc12", "Tested System": "endogenous Tie2 receptor (Homo sapiens, UniProt Q02763)", "pIC50": 8.06}
{"Smiles Entry": "Cc1cc(C)c(-n2ccn3nc(-c4cccnc4)cc23)cc1NC(=O)c1cccc(S(F)(F)(F)(F)F)c1", "Tested System": "endogenous Tie2 receptor (Homo sapiens, UniProt Q02763)", "pIC50": 9.10}
{"Smiles Entry": "Cc1cc(C)c(-n2ccn3nc(-c4cccnc4)cc23)cc1NC(=O)c1cc(F)cc(S(F)(F)(F)(F)F)c1", "Tested System": "endogenous Tie2 receptor (Homo sapiens, UniProt Q02763)", "pIC50": 9.05}
{"Smiles Entry": "Cc1ccc(NC(=O)c2cc(N3CCN(C)CC3)cc(C(C)(C)C)c2)cc1-n1ccn2nc(-c3cccnc3)cc12", "Tested System": "endogenous Tie2 receptor (Homo sapiens, UniProt Q02763)", "pIC50": 8.19}
{"Smiles Entry": "Cc1ccc(NC(=O)c2cc(N3CCOCC3)cc(S(F)(F)(F)(F)F)c2)cc1-n1ccn2nc(-c3cn[nH]c3)cc12", "Tested System": "endogenous Tie2 receptor (Homo sapiens, UniProt Q02763)", "pIC50": 8.47}

Qu. Look up pIC50 for this compound: Cc1ccc(-n2ccn3nc(-c4cccnc4)cc23)cc1NC(=O)c1cc(C#N)cc(S(F)(F)(F)(F)F)c1
Ans. 8.06

Qu. Continue with Cc1ccc(NC(=O)c2cc(C(C)(C)O)cc(S(F)(F)(F)(F)F)c2)cc1-n1ccn2nc(-c3cccnc3)cc12
Ans. 8.68

====

biological target: intracellular domain of human Tie2 (GST fusion protein) (Homo sapiens, UniProt Q02763); construct: intracellular domain of human Tie2 (amino acids 776-1124); assay: Tie2 kinase assay (Tie2-TR-FRET); conditions: ATP concentration 1 mM, in some cases means of several independent determinations
Quantity Measured: pIC50
By convention, pIC50 is the negative base-10 log of a molar concentration.

{"Smiles Entry": "Cc1ccc(NC(=O)c2cc(C#N)cc(S(F)(F)(F)(F)F)c2)cc1-n1ccn2nc(-c3ccnnc3)cc12", "Tested System": "intracellular domain of human Tie2 (GST fusion protein) (Homo sapiens, UniProt Q02763)", "Quantity Measured": "pIC50", "Endpoint Value": 6.14}
{"Smiles Entry": "Cc1ccc(NC(=O)c2cccc(OCC(C)C)c2)cc1-n1ccn2nc(-c3cccnc3)cc12", "Tested System": "intracellular domain of human Tie2 (GST fusion protein) (Homo sapiens, UniProt Q02763)", "Quantity Measured": "pIC50", "Endpoint Value": 6.30}
{"Smiles Entry": "Cc1cc(C)c(-n2ccn3nc(-c4cccnc4)cc23)cc1NC(=O)c1cccc(C2(C)COC2)c1", "Tested System": "intracellular domain of human Tie2 (GST fusion protein) (Homo sapiens, UniProt Q02763)", "Quantity Measured": "pIC50", "Endpoint Value": 9.30}

Qu. // returns reported pIC50 for input COc1cccc(C(=O)Nc2cc(-n3ccn4nc(-c5cccnc5)cc34)c(C)cc2C)c1
Ans. 6.60
